- Test protocol: Microsomal stability, human liver microsomes
- Type: in vitro ADME
- Stated conditions: both sexes, pH 7.4, 0.5 mg/mL microsomes, NADPH, read-out: t1/2 in human microsomes
Recorded endpoint: half-life at 1 μM (min)
Give the value in min but do not write min after it.

Looking up Cc1cc(O)ccc1C(=O)OCCCCCCCCCCCCCC[P+](c1ccccc1)(c1ccccc1)c1ccccn1.[Br-] , I see its half-life at 1 μM listed as 6.2

---

- Test protocol: Microsomal stability, mouse liver microsomes
- Format: in vitro ADME
- Stated conditions: female, CD1, mouse, pH 7.4, 0.5 mg/mL microsomes, NADPH, read-out: t1/2 in mouse microsomes
Recorded endpoint: half-life at 1 μM (min)
Give the value in min but do not write min after it.

Looking up Cc1cc(O)ccc1C(=O)OCCCCCCCCCCCCCC[P+](c1ccccc1)(c1ccccc1)c1ccccn1.[Br-] , I see its half-life at 1 μM listed as 4.6
